assay: logP determination by HPLC, reverse-phase column (C 18), EEC Directive 79/831 Annex V.A8; assay type: physicochemical

- smiles: "CCCN1CCNC1=O"
  logP: "0.55^a)"
